# Test system: Escherichia coli TOP10
# measurementDescription: shrunken log2 fold change of peptide-encoding DNA abundance (4.5 h post-induction vs induction); higher = less antimicrobial activity (less host growth inhibition)
# reportedConditions: time post-induction: 4.5 h; library: site-saturation at positions 5, 18, 19, 20
recordedEndpoint: shrunken log2 fold change
Reply briefly: the number, and no unit.

[
  {
    "sequenceData": "RRIRFRPPRLPRPRPRPLEPPRP",
    "number": -0.199
  },
  {
    "sequenceData": "RRIRNRPPRLPRPRPRPQWLPRP",
    "number": -0.317
  },
  {
    "sequenceData": "RRIRFRPPRLPRPRPRPGVDPRP",
    "number": -0.145
  },
  {
    "sequenceData": "RRIRIRPPRLPRPRPRPMFWPRP",
    "number": -0.128
  },
  {
    "sequenceData": "RRIRRRPPRLPRPRPRPFEMPRP",
    "number": 0.0983
  }
]

Find the recorded shrunken log2 fold change belonging to RRIRCRPPRLPRPRPRPRFFPRP and report it.
0.191

Find the recorded shrunken log2 fold change belonging to RRIRTRPPRLPRPRPRPDTGPRP and report it.
-0.0906

Find the recorded shrunken log2 fold change belonging to RRIRFRPPRLPRPRPRPVIAPRP and report it.
-0.186

Find the recorded shrunken log2 fold change belonging to RRIRRRPPRLPRPRPRPSQCPRP and report it.
0.0735

Find the recorded shrunken log2 fold change belonging to RRIRIRPPRLPRPRPRPVCAPRP and report it.
-0.0399

Find the recorded shrunken log2 fold change belonging to RRIRKRPPRLPRPRPRPMRSPRP and report it.
0.638

Find the recorded shrunken log2 fold change belonging to RRIRDRPPRLPRPRPRPVSNPRP and report it.
0.00716

Find the recorded shrunken log2 fold change belonging to RRIRERPPRLPRPRPRPHSPPRP and report it.
-0.372

###

# maps each entry to its shrunken log2 fold change
# System: Escherichia coli TOP10
# measurementDescription: shrunken log2 fold change of peptide-encoding DNA abundance (4.5 h post-induction vs induction); higher = less antimicrobial activity (less host growth inhibition)
# reportedConditions: time post-induction: 4.5 h; library: site-saturation at positions 5, 18, 19, 20
Reply briefly: the number, and no unit.

Find the recorded shrunken log2 fold change belonging to RRIRSRPPRLPRPRPRPYTVPRP and report it.
-0.676

Find the recorded shrunken log2 fold change belonging to RRIRWRPPRLPRPRPRPDSRPRP and report it.
-0.251

Find the recorded shrunken log2 fold change belonging to RRIRKRPPRLPRPRPRPVPKPRP and report it.
0.289

Find the recorded shrunken log2 fold change belonging to RRIRGRPPRLPRPRPRPTTPPRP and report it.
0.681

Find the recorded shrunken log2 fold change belonging to RRIRERPPRLPRPRPRPVAWPRP and report it.
0.00482

Find the recorded shrunken log2 fold change belonging to RRIRYRPPRLPRPRPRPKCWPRP and report it.
0.14

Find the recorded shrunken log2 fold change belonging to RRIRHRPPRLPRPRPRPINIPRP and report it.
-1.01

###

# maps each entry to its shrunken log2 fold change
# Test system: Escherichia coli TOP10
# measurementDescription: shrunken log2 fold change of peptide-encoding DNA abundance (4.5 h post-induction vs induction); higher = less antimicrobial activity (less host growth inhibition)
# reportedConditions: time post-induction: 4.5 h; library: site-saturation at positions 5, 18, 19, 20
Reply briefly: the number, and no unit.

Check out these entries, answers already filled in.
[
  {
    "sequenceData": "RRIRMRPPRLPRPRPRPSQTPRP",
    "shrunken log2 fold change": 0.38
  },
  {
    "sequenceData": "RRIRGRPPRLPRPRPRPKAAPRP",
    "shrunken log2 fold change": 1.26
  },
  {
    "sequenceData": "RRIRMRPPRLPRPRPRPPYHPRP",
    "shrunken log2 fold change": -0.0913
  },
  {
    "sequenceData": "RRIRWRPPRLPRPRPRPQWFPRP",
    "shrunken log2 fold change": -0.27
  },
  {
    "sequenceData": "RRIRMRPPRLPRPRPRPAFDPRP",
    "shrunken log2 fold change": 0.629
  },
  {
    "sequenceData": "RRIRRRPPRLPRPRPRPRHLPRP",
    "shrunken log2 fold change": 0.197
  },
  {
    "sequenceData": "RRIRQRPPRLPRPRPRPERKPRP",
    "shrunken log2 fold change": 0.0453
  },
  {
    "sequenceData": "RRIRKRPPRLPRPRPRPMSVPRP",
    "shrunken log2 fold change": -0.39
  },
  {
    "sequenceData": "RRIRMRPPRLPRPRPRPLNPPRP",
    "shrunken log2 fold change": 0.0743
  },
  {
    "sequenceData": "RRIRNRPPRLPRPRPRPGVHPRP",
    "shrunken log2 fold change": 0.25
  }
]

Param readout = shrunken log2 fold change; param system = Escherichia coli TOP10; param query = RRIRNRPPRLPRPRPRPLSFPRP ; response: value
-0.387

Param readout = shrunken log2 fold change; param system = Escherichia coli TOP10; param query = RRIRARPPRLPRPRPRPAAYPRP ; response: value
0.412

Param readout = shrunken log2 fold change; param system = Escherichia coli TOP10; param query = RRIRYRPPRLPRPRPRPFKQPRP ; response: value
-1.41

Param readout = shrunken log2 fold change; param system = Escherichia coli TOP10; param query = RRIRVRPPRLPRPRPRPFNHPRP ; response: value;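 note: peptides expressed intracellularly from a pBAD plasmid library in pooled LB shake-flask culture, induced with 0.3% L-arabinose, DNA abundance read by NGS, three biological replicates, DESeq2 with apeglm shrinkage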
-0.106
